# measurement.description: Effect of food on pharmacokinetics (cohort C, 250 mg crossover)
# Assay type: in vivo, human
# condition.context: human, plasma, oral, 250 mg, 250 mg single dose, fasted state
recorded.metric: Tmax

## Task Quick one: Tmax for Cn1cnc(Cn2c(=O)[nH]/c(=N\c3cc4cn(C)nc4cc3Cl)n(Cc3cc(F)c(F)cc3F)c2=O)n1 [Ensitrelvir, ensitrelvir fumaric acid] ?
## Result 2.5 h

----------
# Tested on: CYP3A
# measurement.description: Drug-drug interaction with midazolam (cohort G)
# condition.context: human, in vivo, 2 mg
recorded.metric: Cmax (ng/mL)
Numbers only, in ng/mL.

## Task Quick one: Cmax for Cc1ncc2n1-c1ccc(Cl)cc1C(c1ccccc1F)=NC2 ?
## Result 16.2
